System: L. peruviana LCA08
Test: Activity against macrophages infected with Leishmania amastigotes
Conditions: Leishmania peruviana, Macrophage, read-out: IC50 L. peruviana LCA08
Observation type: IC50 (µg/mL)
Entry rule: numbers only, all in µg/mL.

Please review the entries below; each comes with its answer.
compound="CCC(CC)=NNc1ncnc2sc3c(c12)CCCC3 [II-48]" observation_type=IC50 val=2
compound="C(=N/Nc1ncnc2sc3c(c12)CCCC3)/c1ccccn1 [II-21]" observation_type=IC50 val=0.2

Turning now to a further compound:
Fill blank: measured IC50 of the compound CCc1ccc(/C=N\Nc2ncnc3sc4c(c23)CCCC4)cc1 [II-06] is ____.
3.2
